target: P2Y purinoceptor 1 (Meleagris gallopavo); assay: Measure of Agonist Potency at turkey Purinoceptor P2Y1 stably expressed in 131N1 astrocytoma cell
Sequence (P49652 whole entry): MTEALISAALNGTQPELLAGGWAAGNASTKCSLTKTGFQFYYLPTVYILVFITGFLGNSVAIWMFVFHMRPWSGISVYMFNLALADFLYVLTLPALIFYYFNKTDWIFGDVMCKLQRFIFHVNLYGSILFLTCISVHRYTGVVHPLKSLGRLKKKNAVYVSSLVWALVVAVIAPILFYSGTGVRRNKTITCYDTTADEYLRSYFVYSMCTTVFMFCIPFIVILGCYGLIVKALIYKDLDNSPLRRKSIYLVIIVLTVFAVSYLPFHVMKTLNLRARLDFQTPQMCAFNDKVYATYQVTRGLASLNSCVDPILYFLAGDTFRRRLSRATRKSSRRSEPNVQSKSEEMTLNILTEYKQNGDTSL
readout.kind: EC50
# number then unit; no other words

Answered examples (2):
molecule: Nc1ncnc2c1ncn2[C@@H]1O[C@H](COP(=O)(O)O)[C@@H](O)[C@H]1O (stereo in doubt; form 4) [ADENOSINE PHOSPHATE]
target: P2Y purinoceptor 1 (Meleagris gallopavo)
EC50: 3.5 µM
--
molecule: Nc1ncnc2c1ncn2[C@H]1[C@H](O)[C@H](O)[C@]2(COP(=O)(O)OP(=O)(O)OP(=O)(O)O)C[C@H]12 (stereo in doubt; form 1)
target: P2Y purinoceptor 1 (Meleagris gallopavo)
EC50: 0.014 µM

For the record Nc1ncnc2c1ncn2[C@@H]1O[C@H](COP(=O)(O)O)[C@@H](O)[C@H]1O (stereo in doubt; form 3) [ADENOSINE PHOSPHATE] , what value of EC50 is listed for P2Y purinoceptor 1 (Meleagris gallopavo)?
2.8 µM
